Measured values drawn from PubChem BioAssay (NCI) for this set.

Catalogue of TGI readings, one per entry.
# Tested on: LOX IMVI melanoma
# test_method_notes: NCI tumour cell line growth inhibition, 48 h

CC1=C(C(=O)Nc2cccc(Cl)c2)C(c2ccccc2O)C(C(=O)Nc2cccc(Cl)c2)=C(C)N1 :: 39.7 µM

Form field TGI, entry CN1C(=O)N(C)C2(CCN(CC(CC3OCCO3)c3ccc(F)cc3)CC2)C1=O (stereo not drawn) : > 100 µM

###

# Test system: 786-0 renal
# test_method_notes: NCI tumour cell line growth inhibition, 48 h
measured_metric: TGI

Answered examples (8):
C[C@@H](C1CC[C@H]2[C@@H]3[C@@H]4O[C@@H]4[C@@]4(O)CC=CC(=O)[C@]4(C)[C@H]3C[C@H](O)[C@]12C)[C@H]1C[C@]2(C)O[C@]2(C)C(=O)O1 (stereo not given in full) :: > 100 µM
CCc1cccc(C(C)C)c1NC(=O)CC1Sc2ccccc2NC1=O (stereo not given) :: > 100 µM
O=[N+]([O-])c1cc(C2(N3CCCCC3)CCCCC2)sc1Br :: 39.2 µM
Clc1ccc(-c2cc(-c3ccccc3)nc(N3CCN(CCCNc4ccnc5cc(Cl)ccc45)CC3)n2)cc1 :: 2.84 µM
CC(=N/NC(=S)N1CCCCCC1)/C(C)=N\NC(=S)N1CCCCCC1 :: 9.79 µM
CC1CC(=O)Nc2ccc(Cl)cc2N1C(=O)CN1CCC(CCCCN(C)C)CC1 (stereo not given) :: > 100 µM
CC(C)N(C(=O)C12C3C4C1C1C2C3C41C(=O)C(C)(C)C)C(C)C (stereo not given) :: > 100 µM
C=CCn1c(-c2cc(C(C)(C)C)c(O)c(C(C)(C)C)c2)cs/c1=N\C(P(=O)(O)O)P(=O)(O)O :: > 100 µM

# TGI (compound: `CC(=O)Nc1ccc(NC(=O)CC(=O)Nc2ccc(NC(C)=O)cc2)cc1` ) is > 100 µM

Cc1ccc(C2(O)c3ccccc3C(=O)N(C)C2(O)c2ccc(C)cc2)cc1 (stereo not given) yielded TGI of > 100 µM

###

# System: OVCAR-4 ovarian
# test_method_notes: NCI tumour cell line growth inhibition, 48 h
Each entry below carries its recorded TGI.

Solved cases (2 shown):
CC(=O)OC1C[C@H]2C(OC(=O)c3ccccc3)C3C4(OC(C)=O)COC4C[C@H](OC(C)=O)[C@@]3(C)C(OC(C)=O)[C@H](OC(C)=O)C(=C1C)C2(C)C (stereo partly drawn) :: > 100 µM
c1ccc(-c2csc3c2-n2cccc2C3N2CCCC2)cc1 (stereo not drawn) :: > 100 µM

Consider the additional compound presented here.
Sure, the documented TGI for `CON(C)c1nc(N)c(C#N)c(C#N)c1C#N` is > 10 µM

###

Overview of recorded TGI for various compounds
# Test system: MALME-3M melanoma
# test_method_notes: NCI tumour cell line growth inhibition, 48 h

Cc1cccc2c(C3=C(c4cn(C)c5ccccc45)C(=O)NC3=O)cn(C)c12 :: > 25 µM
O=C1/C(=C/c2cccnc2)SC(=S)N1Cc1ccco1 :: > 43.5 µM
CC12NC(=C(C#N)C#N)C(C#N)=C3NC(N)=C(C#N)C(=C31)Oc1ccccc12 (stereo not given) :: > 100 µM
CC1(CO)C(O)CCC2(C)C1CCC1CC3CC12CCC3(O)CO (stereo not given) :: > 100 µM

Below: the item to evaluate.
Entry `CC(=O)N[C@H](C)[C@@H](O)[C@@H](C)[C@@H]1OC(=O)/C=C/C=C(C)\C=C\[C@]2(C)C[C@@H](NS(C)(=O)=O)C=C[C@@H]2/C=C(C)/C=C/[C@H]1C` , TGI reported as > 43.5 µM
